Recorded values, source PubChem BioAssay (NCATS).

Assay: Confirmatory screen NINDS Rhodamine qHTS for Zika virus inhibitors (AID 1347161); note: nearly all actives have a fitted effect of over 60% in size
Conditions: purified enzyme assay, Rhodamine110 substrate fluorescence, 15 min; series mostly up to 114 µM
Records with an inconclusive call do not appear. Active and inactive are the calls of the source. Calls come from the whole dose curve; as a rule, active = well fitted inhibition curve with a large enough effect; inconclusive = small, poorly fitted or top-dose-only effect; inactive = no such curve, though single readings can be large or run the other way.
Classes used: y = active, n = inactive

compoundString: O=C(Nc1ccc(C(=O)OCc2cc(=O)n3c4c(sc3n2)CCCC4)cc1)c1cccc(F)c1
cat: n

compoundString: O=C(O)c1ccc(O)c2ncc(N3CCCN(CCc4cccc5ccccc45)CC3)cc12
cat: y

compoundString: CN(C)[C@@H]1C(=O)C(C(=O)NCN2CCCC2)=C(O)[C@@]2(O)C(=O)C3=C(O)c4c(O)cccc4[C@@](C)(O)[C@H]3C[C@@H]12
cat: y

compoundString: CCCc1nn2c(=O)cc(COC(=O)c3ccccc3NC(=O)c3ccc(Cl)cc3)nc2s1
cat: n

====

Biological target: Nuclear receptor subfamily 1 group I member 3 (Homo sapiens) (UniProt Q14994)
Sequence (Q14994 whole entry, looked up): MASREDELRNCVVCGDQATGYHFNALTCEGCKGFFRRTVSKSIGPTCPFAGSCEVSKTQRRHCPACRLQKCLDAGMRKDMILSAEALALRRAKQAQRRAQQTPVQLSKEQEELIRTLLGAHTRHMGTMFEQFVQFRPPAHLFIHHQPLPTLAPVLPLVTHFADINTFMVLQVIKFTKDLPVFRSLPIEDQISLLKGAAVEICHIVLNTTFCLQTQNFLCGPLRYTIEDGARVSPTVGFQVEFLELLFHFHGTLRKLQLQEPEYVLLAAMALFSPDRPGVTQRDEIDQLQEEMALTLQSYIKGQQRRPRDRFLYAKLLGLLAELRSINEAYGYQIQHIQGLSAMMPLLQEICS
Test: qHTS for Constitutive Androstane Receptor (CAR) Agonist screened against the NCATS CANVASS Library (AID 1347373);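 note: every well also contained 1.5 µM PK11195 alongside the test compound; 0% is about no effect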
Conditions: HepG2-hCAR-CYP2B6 luciferase reporter, ONE-Glo luminescence; series mostly up to 46.1 µM
Text: Natural products and their derivatives continue to be wellsprings of nascent therapeutic potential. […] To address this issue, the Canvass library of natural products was assembled (https://tripod.nih.gov/canvass), in collaboration with academic and industry researchers, for quantitative high-throughput screening (qHTS) across a diverse set of cell-based and biochemical assays. […]
Inconclusive results are not listed. Calls of active or inactive are those of the source. The call rests on the fitted dose curve; in most records, active means well fitted activation curve with a large enough effect; inconclusive means small, poorly fitted or top-dose-only effect; inactive means no such curve, though single readings can be large or run the other way. Peptide text beside a SMILES is read from it. * marks the point of attachment. Octanoyl = CCCCCCCC(=O)*

compound: O=Cc1ccc2n1C[C@@]1(C[C@H](O)[C@H](O)CO1)OC2
measuredTarget: Nuclear receptor subfamily 1 group I member 3 (Homo sapiens) (UniProt Q14994)
activation: inactive

compound: CCCCCCCC(=O)N[C@@H](CC(C)C)C(=O)N[C@H](C=O)CCC(=O)O (Octanoyl-Leu-Glu-aldehyde)
measuredTarget: Nuclear receptor subfamily 1 group I member 3 (Homo sapiens) (UniProt Q14994)
activation: inactive

compound: C[C@@H]1O[C@H](c2c(O)cc(O)c3c(=O)cc(-c4ccc(O)cc4)oc23)[C@H](O)[C@H](O)[C@H]1O
measuredTarget: Nuclear receptor subfamily 1 group I member 3 (Homo sapiens) (UniProt Q14994)
activation: inactive

compound: O=C(O)[C@@]12COC3(O)C1CCN1CC[C@H]3[C@@H]1c1c2[nH]c2ccccc12
measuredTarget: Nuclear receptor subfamily 1 group I member 3 (Homo sapiens) (UniProt Q14994)
activation: inactive

compound: CN1C(=O)C2C(N=CN2C)N(C)C1=O (stereo not given)
measuredTarget: Nuclear receptor subfamily 1 group I member 3 (Homo sapiens) (UniProt Q14994)
activation: inactive

====

System: OV90
Test: Primary qHTS to identify gynecologic anti-cancer compounds using libraries of approved drugs and bioactive compounds (AID 1345084); note: nearly all actives have a fitted effect of over 55% in size
Details: Gynecologic cancer cell panel viability, ATPlite luminescence, 48 h; series mostly up to 57.5 µM
Inconclusive results are not listed. The source made the active and inactive calls. Calls come from the whole dose curve; as a rule, active = well fitted cell-killing curve with a large enough effect; inconclusive = small, poorly fitted or top-dose-only effect, or effect the other way; inactive = flat fitted curve, though single readings scatter.
Outcomes: active, inactive

molecule: C=CC(=O)Nc1cccc(Nc2nc(Nc3ccc(Oc4ccnc(C(=O)NC)c4)cc3)ncc2F)c1
cat: inactive

molecule: Cc1ccc2c(Nc3ccc(Cl)cc3)nccc2c1Nc1ncccc1-c1ncnc2nc[nH]c12
cat: active

molecule: CNc1ccc([N+](=O)[O-])cc1-n1cnc(-c2ccc(C(F)(F)F)cc2)c1
cat: inactive

molecule: C=C1C(=O)O[C@@H]2/C=C(/C)CC3C=C(C[C@H](OC(=O)/C(C)=C\C)[C@@H]12)C(=O)O3 (some centres undefined)
cat: inactive

molecule: Cc1ccn(-c2cc(Cl)ccc2[C@@H](Oc2cc(-c3ccc(C[C@H](N)C(=O)O)cc3)nc(N)n2)C(F)(F)F)n1
cat: inactive

molecule: CCNC(=O)[C@@H]1CCCN1C(=O)[C@H](CCCN=C(N)N)NC(=O)[C@H](CC(C)C)NC(=O)[C@@H](CC(C)C)NC(=O)[C@H](Cc1ccc(O)cc1)NC(=O)[C@H](CO)NC(=O)[C@H](Cc1c[nH]c2ccccc12)NC(=O)[C@H](Cc1cnc[nH]1)NC(=O)[C@@H]1CCC(=O)N1
cat: inactive

molecule: Cc1cc2nc(NCCCO)n(CC(=O)c3cc(C(C)(C)C)c(O)c(C(C)(C)C)c3)c2cc1C
cat: inactive

molecule: CN(C)CC(=O)Nc1ccc2[nH]c(=O)c3ccccc3c2c1
cat: inactive

molecule: COc1ccc2c(c1)C[C@H](C(=O)Nc1ccc(-c3cn[nH]c3)cc1OCCN(C)C)CO2
cat: inactive

molecule: C=C(C)C(=O)O[C@H]1[C@H]2C(=C)C(=O)O[C@@H]2C[C@@H](C)[C@@H]2O[C@@H]2C(=O)[C@](C)(O)[C@@H]1OC(C)=O
cat: inactive

molecule: CN(C)CCCCCCNC(=O)c1cccc(-c2cc(O)c3ncccc3c2)c1
cat: inactive

molecule: C=C(C)C(=O)OC1[C@@H]2C(=C)C(=O)O[C@@H]2C[C@@H](C)[C@@H]2C=CC(=O)[C@@]12C (some centres undefined)
cat: inactive

molecule: CC(C)(C)c1ccc(-c2nc3ccccc3[nH]2)cc1
cat: active

molecule: COc1ccc(C(=O)N(CCC(C)C)Cc2nc(C)c(C)n2Cc2ccccc2C)c(OC)c1
cat: inactive

molecule: CC1CCCC(SCC(O)C(=O)O)CC(=O)c2c(O)cc(O)cc2CC(=O)O1 (centres undefined)
cat: inactive

molecule: CCOP(=O)(Cc1ccc(C(=O)Nc2ccc(Br)cc2C#N)cc1)OCC
cat: inactive

molecule: O=C(NC(NC(=S)Nc1ccc(F)c([N+](=O)[O-])c1)C(Cl)(Cl)Cl)C(c1ccccc1)c1ccccc1 (centres undefined)
cat: inactive

molecule: CN1CCN(C(=O)c2ccc(Nc3nccc(-c4cccs4)n3)cc2Cl)CC1
cat: inactive

molecule: Nc1ncnc2c1ncn2[C@@H]1O[C@H](CO)C[C@H]1O
cat: inactive

molecule: COc1cccc(CNC(=O)Nc2nc(-c3ccncc3)cs2)c1
cat: inactive

molecule: CCCCc1nc(Cl)c(CO)n1Cc1ccc(-c2ccccc2-c2nnn[nH]2)cc1
cat: inactive

molecule: CC(C)n1cnc2c(Nc3cccc(Cl)c3)nc(NCCO)nc21
cat: inactive

molecule: COc1cc2nc(-c3cc(F)ccc3O)nc(N[C@@H]3CNC[C@H]3C(C)(C)O)c2cc1OC
cat: inactive

molecule: N#CCC(C1CCCC1)n1cc(-c2ncnc3[nH]ccc23)cn1 (centres undefined)
cat: inactive

molecule: O=C1c2c(O[C@@H]3O[C@H](CO)[C@@H](O)[C@H](O)[C@H]3O)cc(O)cc2OC1(O)Cc1ccc(O)cc1 (some centres undefined)
cat: inactive

molecule: Cc1ccccc1C(=O)Nc1ccc(C(=O)N2CCC[C@@H](O)c3cc(Cl)ccc32)c(C)c1
cat: inactive

molecule: C=C1C(=O)O[C@@H]2C[C@@H](C)[C@]34C[C@]5(C(=O)O[C@H]6CC(C)=C([C@H](C)CCCO)[C@H](OC(=O)C(C)CC)[C@H]65)[C@@H](C(C)=C3C[C@@H]12)[C@H]4OC(C)=O (some centres undefined)
cat: inactive

molecule: CN(Cc1ccc(C(=O)O)cc1)c1ccc(OCc2c(-c3c(Cl)cccc3Cl)noc2C2CC2)nc1C(F)(F)F
cat: inactive

molecule: N#C[C@@H]1C[C@@H]2C[C@@H]2N1C(=O)[C@@H](N)C12CC3CC(CC(O)(C3)C1)C2
cat: inactive

molecule: O=C(CC1NCCC[C@H]1O)Cn1cnc2cc(Br)c(Cl)cc2c1=O (some centres undefined)
cat: inactive

molecule: CCCCc1nc(C)c(CC(=S)N(C)C)c(=O)n1Cc1ccc(-c2ccccc2-c2nn[nH]n2)cc1
cat: inactive

molecule: C[C@@H](O[C@H]1OCCN(Cc2n[nH]nc2CN(C)C)[C@H]1c1ccc(F)cc1)c1cc(C(F)(F)F)cc(C(F)(F)F)c1
cat: inactive

molecule: C=C1C(=O)O[C@@H]2[C@H]1[C@H](O)C[C@]1(C)[C@@H](O)CC=C(C)[C@@H]21
cat: inactive

molecule: O=S(=O)(c1cccc2ccccc12)n1ccc2ccc(N3CCN4CCCC4C3)cc21 (centres undefined)
cat: inactive

====

Biological target: Furin (Homo sapiens) (UniProt P09958)
Sequence (P09958 whole entry, looked up): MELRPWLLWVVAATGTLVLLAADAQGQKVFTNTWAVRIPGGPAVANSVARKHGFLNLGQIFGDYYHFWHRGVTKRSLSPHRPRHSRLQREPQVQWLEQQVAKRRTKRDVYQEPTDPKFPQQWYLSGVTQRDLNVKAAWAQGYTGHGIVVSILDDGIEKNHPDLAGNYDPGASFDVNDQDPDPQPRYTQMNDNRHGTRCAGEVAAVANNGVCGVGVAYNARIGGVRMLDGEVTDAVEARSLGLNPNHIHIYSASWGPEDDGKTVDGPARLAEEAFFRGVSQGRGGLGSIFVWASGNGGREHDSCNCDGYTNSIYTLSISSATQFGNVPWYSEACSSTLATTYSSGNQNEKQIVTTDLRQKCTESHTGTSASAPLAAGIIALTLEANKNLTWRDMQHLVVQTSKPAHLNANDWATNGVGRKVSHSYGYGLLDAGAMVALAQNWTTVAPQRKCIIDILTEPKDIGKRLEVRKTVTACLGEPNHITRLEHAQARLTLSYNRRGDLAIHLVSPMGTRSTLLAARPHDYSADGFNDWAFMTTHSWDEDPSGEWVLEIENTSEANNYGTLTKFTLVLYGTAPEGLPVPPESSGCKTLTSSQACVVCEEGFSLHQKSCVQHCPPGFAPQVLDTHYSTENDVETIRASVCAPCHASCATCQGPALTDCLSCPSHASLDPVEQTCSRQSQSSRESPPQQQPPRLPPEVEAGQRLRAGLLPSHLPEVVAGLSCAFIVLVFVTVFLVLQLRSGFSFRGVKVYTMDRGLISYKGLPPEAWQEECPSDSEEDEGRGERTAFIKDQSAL
Assay: Furin counterscreen qHTS for Zika virus inhibitors (AID 1347149); note: nearly all actives have a fitted effect of over 70% in size
Conditions: furin enzymatic counterscreen, fluorogenic substrate; series mostly up to 114 µM
Inconclusive results are not listed. Active and inactive are the calls of the source. The call rests on the fitted dose curve; in most records, active means well fitted inhibition curve with a large enough effect; inconclusive means small, poorly fitted or top-dose-only effect; inactive means no such curve, though single readings can be large or run the other way.
Labels: class 1 = active, class 0 = inactive

compound: Cc1ccc2nc(NS(=O)(=O)c3ccc(Cl)cc3)c(Nc3ccc(C(=O)O)cc3)nc2c1
cat: class 0
--
compound: Cc1cccc(C)c1NS(=O)(=O)c1ccc(NS(=O)(=O)c2ccc3c(c2)OCCO3)cc1
cat: class 0
--
compound: COC(=O)C1=C(c2ccccc2)c2ccccc2S(=O)(=O)N1CC(=O)Nc1ccccc1C(F)(F)F
cat: class 0
--
compound: CCOc1ccc(S(=O)(=O)Nc2cc3c(C(=O)OCc4ccccc4)c(C)oc3c3ccccc23)cc1
cat: class 0
--
compound: O=C(Nc1cccc2ccccc12)O[C@@H]1CO[C@H]2[C@@H]1OC[C@@H]2NS(=O)(=O)c1cccc2cccnc12
cat: class 0
--
compound: COc1cc(C2Nc3ccccc3-c3nnc(SCc4ccc(Cl)cc4)nc3O2)ccc1OCC(=O)O (centres undefined)
cat: class 0
--
compound: Cc1csc2nc(COC(=O)c3ccccc3NC(=O)c3ccc(C(C)(C)C)cc3)cc(=O)n12
cat: class 1
--
compound: COc1ccc(-c2nc(C(=O)N3CCN(C)CC3)sc2-c2ccc(OC)cc2)cc1
cat: class 1
--
compound: O=C(O)COc1ccccc1C1Nc2ccccc2-c2nnc(SCc3ccc(Cl)cc3)nc2O1 (centres undefined)
cat: class 0
